Task for the reader: assign each of the following compounds its reported Liver Microsome Stability (Multiple Species): Human - % Remaining after 30 min w/NADPH.
experiment: Liver Microsome Stability Assay (human); conditions: human liver microsomes, with NADPH, 1.0 uM compound
// units = %; emit number, no label

### Prompt Can you look up the measured Liver Microsome Stability (Multiple Species): Human - % Remaining after 30 min w/NADPH of CN1CC(OC(=O)Nc2ccc(N3CCC[C@@H]3c3csc(NC(=O)c4cccn4Cc4ccnc(F)c4)n3)cc2)C1 [Compound A173] for me?
### Response 70.3

### Prompt Can you look up the measured Liver Microsome Stability (Multiple Species): Human - % Remaining after 30 min w/NADPH of O=C(Nc1nc(/C=C/c2coc(C3CC3)n2)cs1)c1cccn1Cc1ccncc1 [Compound B40] for me?
### Response 0.48

### Prompt Can you look up the measured Liver Microsome Stability (Multiple Species): Human - % Remaining after 30 min w/NADPH of CNc1ccc(N2CCC[C@@H]2c2csc(NC(=O)c3cccn3Cc3ccncc3)n2)cc1 [Compound A15] for me?
### Response 5.24

### Prompt Can you look up the measured Liver Microsome Stability (Multiple Species): Human - % Remaining after 30 min w/NADPH of CCc1ccc(N2CCC[C@@H]2c2csc(NC(=O)c3cccn3CC3CCOCC3)n2)cc1 [Compound C110] for me?
### Response 61.3

### Prompt Can you look up the measured Liver Microsome Stability (Multiple Species): Human - % Remaining after 30 min w/NADPH of O=C(Nc1nc([C@H]2CCCN2c2ccccc2)cs1)c1cccn1Cc1cccc(Br)c1 [Compound C121] for me?
### Response 64.9

### Prompt Can you look up the measured Liver Microsome Stability (Multiple Species): Human - % Remaining after 30 min w/NADPH of CC(=O)N1CCC(C)(Oc2ccc(N3CCC[C@@H]3c3csc(NC(=O)c4cccn4Cc4ccnc(F)c4)n3)cc2)CC1 [Compound A97] for me?
### Response 6.01

### Prompt Can you look up the measured Liver Microsome Stability (Multiple Species): Human - % Remaining after 30 min w/NADPH of CCn1cnc(/C=C/c2csc(NC(=O)c3cccn3Cc3ccnc(F)c3)n2)c1 [Compound B65] for me?
### Response 0.18

### Prompt Can you look up the measured Liver Microsome Stability (Multiple Species): Human - % Remaining after 30 min w/NADPH of O=C1NC(/C=C/c2csc(NC(=O)c3cccn3Cc3ccncc3)n2)CO1 (stereo not shown) [Compound B12] for me?
### Response 3.28

### Prompt Can you look up the measured Liver Microsome Stability (Multiple Species): Human - % Remaining after 30 min w/NADPH of O=C(Nc1nc(/C=C/c2c[nH]cn2)cs1)c1cccn1Cc1ccnc(F)c1 [Compound B114] for me?
### Response 30.7

### Prompt Can you look up the measured Liver Microsome Stability (Multiple Species): Human - % Remaining after 30 min w/NADPH of CC(=O)Nc1ccc(N2CCC[C@@H]2c2csc(NC(=O)c3cccn3Cc3ccnc(F)c3)n2)cc1 [Compound A68] for me?
### Response 25.8

### Prompt Can you look up the measured Liver Microsome Stability (Multiple Species): Human - % Remaining after 30 min w/NADPH of CC(C)n1cnc(/C=C/c2csc(NC(=O)c3cccn3Cc3ccnc(F)c3)n2)c1 [Compound B45] for me?
### Response 0.1

### Prompt Can you look up the measured Liver Microsome Stability (Multiple Species): Human - % Remaining after 30 min w/NADPH of CC(=O)N1CCC(Oc2ccc(N3CCC[C@@H]3c3csc(NC(=O)c4cccn4Cc4ccnc(F)c4)n3)c(Cl)c2)CC1 [Compound A143] for me?
### Response 0.16

### Prompt Can you look up the measured Liver Microsome Stability (Multiple Species): Human - % Remaining after 30 min w/NADPH of CCOC(=O)Nc1ccc(N2CCC[C@@H]2c2csc(NC(=O)c3cccn3Cc3ccnc(F)c3)n2)cc1 [Compound A145] for me?
### Response 41.5

### Prompt Can you look up the measured Liver Microsome Stability (Multiple Species): Human - % Remaining after 30 min w/NADPH of O=C(Nc1nc([C@H]2CCCN2c2ccc(OC3CCS(=O)(=O)CC3)cc2)cs1)c1cccn1Cc1ccnc(F)c1 [Compound A138] for me?
### Response 25.1

### Prompt Can you look up the measured Liver Microsome Stability (Multiple Species): Human - % Remaining after 30 min w/NADPH of O=C(Nc1nc([C@@H]2CCCN(c3ccccn3)C2)cs1)c1cccn1Cc1ccncc1 [Compound E47] for me?
### Response 0.57

### Prompt Can you look up the measured Liver Microsome Stability (Multiple Species): Human - % Remaining after 30 min w/NADPH of O=C(Nc1nc(-c2ccccc2-c2ccccn2)cs1)c1cccn1Cc1ccnc(F)c1 [Compound A168] for me?
### Response 0.45

Numbers sourced from patent US20230286973A1.
